Entries and their 50% neutralization VR1814, Mo-DC values follow.
# experimentalTarget: hCMV glycoprotein B (gB; HEK293T transfectant) (hCMV, UniProt P06473 32-906)
# Sequence (P06473 32-906 limits assumed): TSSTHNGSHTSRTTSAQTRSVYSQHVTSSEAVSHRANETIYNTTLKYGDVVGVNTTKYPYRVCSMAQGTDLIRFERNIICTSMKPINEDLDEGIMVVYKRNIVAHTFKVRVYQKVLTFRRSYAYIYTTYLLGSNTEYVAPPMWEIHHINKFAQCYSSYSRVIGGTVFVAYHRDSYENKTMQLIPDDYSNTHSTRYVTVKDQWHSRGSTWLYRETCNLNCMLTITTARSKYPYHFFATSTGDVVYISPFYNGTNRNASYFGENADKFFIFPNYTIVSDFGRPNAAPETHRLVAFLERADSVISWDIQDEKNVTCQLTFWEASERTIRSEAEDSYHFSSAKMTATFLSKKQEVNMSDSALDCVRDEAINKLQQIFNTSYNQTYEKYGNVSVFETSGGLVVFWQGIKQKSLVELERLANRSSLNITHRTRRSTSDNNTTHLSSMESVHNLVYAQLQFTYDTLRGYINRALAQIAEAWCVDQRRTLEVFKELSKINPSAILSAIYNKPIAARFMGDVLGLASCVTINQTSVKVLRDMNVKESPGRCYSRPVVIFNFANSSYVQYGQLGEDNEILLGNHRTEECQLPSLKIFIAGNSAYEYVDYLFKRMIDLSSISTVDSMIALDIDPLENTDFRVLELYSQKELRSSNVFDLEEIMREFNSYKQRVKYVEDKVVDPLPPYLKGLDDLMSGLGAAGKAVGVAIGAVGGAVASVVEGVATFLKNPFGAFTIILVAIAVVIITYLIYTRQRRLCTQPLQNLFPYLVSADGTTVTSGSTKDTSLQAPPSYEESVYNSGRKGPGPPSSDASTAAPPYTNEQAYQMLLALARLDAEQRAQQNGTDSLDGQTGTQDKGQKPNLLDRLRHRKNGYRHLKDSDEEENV
# assayDetails: cell-based or functional assay
Don't forget the unit after the value.

Example entries and their recorded answers appear below.
binder: 10C6 (antibody, V domains shown, human IgG; also called 10C6-biotin; 1006) VH: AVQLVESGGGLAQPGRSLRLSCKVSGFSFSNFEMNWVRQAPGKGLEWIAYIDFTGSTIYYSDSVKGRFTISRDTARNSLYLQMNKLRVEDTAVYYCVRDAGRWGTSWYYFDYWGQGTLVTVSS VL: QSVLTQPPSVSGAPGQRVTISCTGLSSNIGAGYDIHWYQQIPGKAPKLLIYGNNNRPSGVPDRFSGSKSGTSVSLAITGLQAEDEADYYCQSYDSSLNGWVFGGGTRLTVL
experimentalEndpoint: 50% neutralization VR1814, Mo-DC
reportedMeasurement: 0.02 µg/mL

binder: 7H3 (antibody, V domains shown, fully human IgG1 with unaltered Fc; also called 7H3-biotin; LJP538) VH: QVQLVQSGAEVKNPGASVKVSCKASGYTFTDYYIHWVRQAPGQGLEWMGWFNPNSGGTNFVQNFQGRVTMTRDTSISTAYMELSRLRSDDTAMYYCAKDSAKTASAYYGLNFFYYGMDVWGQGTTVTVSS VL: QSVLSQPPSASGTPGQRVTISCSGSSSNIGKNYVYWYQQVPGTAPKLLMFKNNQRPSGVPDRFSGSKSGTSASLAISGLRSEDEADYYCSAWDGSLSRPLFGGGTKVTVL
experimentalEndpoint: 50% neutralization VR1814, Mo-DC
reportedMeasurement: 0.06 µg/mL

binder: 6B4 (antibody, V domains shown, human IgG; also called 6B4-biotin) VH: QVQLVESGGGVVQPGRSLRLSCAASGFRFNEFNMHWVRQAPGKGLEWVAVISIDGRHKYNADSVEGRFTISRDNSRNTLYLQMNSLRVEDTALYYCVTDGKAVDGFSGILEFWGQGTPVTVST VL: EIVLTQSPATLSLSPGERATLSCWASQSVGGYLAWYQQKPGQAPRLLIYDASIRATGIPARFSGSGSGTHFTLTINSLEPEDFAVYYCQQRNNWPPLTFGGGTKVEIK
experimentalEndpoint: 50% neutralization VR1814, Mo-DC
reportedMeasurement: 0.11 µg/mL

(Q) State its 50% neutralization VR1814, Mo-DC for this binder: 5F1 (antibody, V domains shown, human IgG; also called 5F1-biotin) VH: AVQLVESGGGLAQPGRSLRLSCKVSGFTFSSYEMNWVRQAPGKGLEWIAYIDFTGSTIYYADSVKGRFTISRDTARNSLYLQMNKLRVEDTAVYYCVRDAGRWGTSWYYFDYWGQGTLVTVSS VL: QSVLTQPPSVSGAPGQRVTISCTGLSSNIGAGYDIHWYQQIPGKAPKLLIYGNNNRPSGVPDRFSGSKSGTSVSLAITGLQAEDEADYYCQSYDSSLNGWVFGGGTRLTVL
(A) 0.05 µg/mL
